target: serotonin 5-HT2A receptor (Human Cortex) (Homo sapiens, UniProt P28223)
Sequence (P28223 whole entry): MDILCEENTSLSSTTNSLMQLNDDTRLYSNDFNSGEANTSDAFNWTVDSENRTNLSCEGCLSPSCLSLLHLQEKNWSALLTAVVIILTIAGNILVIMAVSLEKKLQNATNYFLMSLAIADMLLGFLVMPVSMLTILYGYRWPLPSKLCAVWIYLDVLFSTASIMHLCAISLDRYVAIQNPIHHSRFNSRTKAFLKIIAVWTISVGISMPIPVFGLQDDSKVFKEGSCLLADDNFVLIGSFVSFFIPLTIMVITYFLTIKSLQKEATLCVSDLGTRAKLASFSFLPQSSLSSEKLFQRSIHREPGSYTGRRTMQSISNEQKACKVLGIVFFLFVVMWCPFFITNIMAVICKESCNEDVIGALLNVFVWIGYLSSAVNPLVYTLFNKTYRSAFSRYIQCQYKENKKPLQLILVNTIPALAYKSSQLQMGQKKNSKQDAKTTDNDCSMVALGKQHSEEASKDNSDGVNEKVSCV
Where a name gives a salt, the structure may show the parent alone.
Output met for records whose IC50 is lower than 600 nM, not met for records at or above 600 nM.

>  <COMPOUND>
CCOC(=O)CN1C(=O)COc2ccc(OCCCCN3CCN(c4cccc(Cl)c4Cl)CC3)cc21 [Compound 28c, hydrochloride]

>  <GROUP_LABEL>
met

$$$$
>  <COMPOUND>
CCOC(=O)C(C)(C)Oc1ccccc1N1CCN(CCCCOc2ccc3c(c2)NC(=O)CO3)CC1 [Compound 18c, hydrochloride]

>  <GROUP_LABEL>
met

$$$$
>  <COMPOUND>
O=C(CCCN1CCN(c2cccc(Cl)c2Cl)CC1)Nc1ccc2c(c1)NC(=O)CO2 [Compound 5b, hydrochloride]

>  <GROUP_LABEL>
met

$$$$
>  <COMPOUND>
CCOC(=O)CCCOc1ccccc1N1CCN(CCCCOc2ccc3c(c2)NC(=O)CO3)CC1 [Compound 18a, hydrochloride]

>  <GROUP_LABEL>
met

$$$$
>  <COMPOUND>
CCOC(=O)C(C)(C)CCOc1ccccc1N1CCN(CCCCOc2ccc3c(c2)NC(=O)CO3)CC1 [Compound 18b, hydrochloride]

>  <GROUP_LABEL>
not met

$$$$
